# assay: folding enthalpy; higher = less favourable; fluorescence melt of hairpins on a sequencing array, two-state fit
# condition_parameters: sodium 0.088 M
# label = bin(measured folding enthalpy), where bins are LOW: < -30 kcal/mol; MID: ≥ -30 kcal/mol and < -20 kcal/mol; HIGH: ≥ -20 kcal/mol

A selection of reference data follows.
For the record GGTGGCGCGAAAGCGACC (((..(((....)))))) , report the class its folding enthalpy corresponds to. HIGH

For the record GCGGTGCGAAAGCGCTGC ((.(.((....)).).)) , report the class its folding enthalpy corresponds to. MID

For the record GATCGTTTATACGATC ((((((....)))))) , report the class its folding enthalpy corresponds to. LOW

For the record GAGCGAGGAAACTCGCCC (.(((((....))))).) , report the class its folding enthalpy corresponds to. HIGH

For the record GAGTGCGAAAGCATCTC ((((((....))).))) , report the class its folding enthalpy corresponds to. MID

Next:
For the record GCGGCTCACCGC ((((....)))) , report the class its folding enthalpy corresponds to. MID

For the record GATCCTAATAGGATC ((((((...)))))) , report the class its folding enthalpy corresponds to. MID

For the record GATCGGCCAGCCGATC ((((((....)))))) , report the class its folding enthalpy corresponds to. LOW

For the record GAGACCCGAAAGGGCTC (((.(((....)))))) , report the class its folding enthalpy corresponds to. MID

For the record GTTACCGAAAGGTTGAAC ((((((....)))..))) , report the class its folding enthalpy corresponds to. HIGH

For the record GACCGTGCGAAAGCAGTC (((..(((....)))))) , report the class its folding enthalpy corresponds to. HIGH

For the record GTGTTTGGAAACAAATAC ((.((((....)))).)) , report the class its folding enthalpy corresponds to. MID

For the record GTACCCGAAAGGGATAC ((((((....))).))) , report the class its folding enthalpy corresponds to. HIGH

For the record GATCGTCCACACGATC ((((((....)))))) , report the class its folding enthalpy corresponds to. LOW

Numbers sourced from the array DNA melting data of Ke et al. (doi:10.1101/2024.01.08.574731).
